Data origin: PubChem BioAssay (NCI)

testName: NCI Yeast Anticancer Drug Screen. Data for the bub3 strain (AID 167)
experimentalContext: S. cerevisiae bub3 mutant strain, at 50.0 µM, active compounds read high
The panel holds about 79,000 compounds, 15% with a hit somewhere; the sample as a whole holds those more often.
propertyMeasured: growth inhibition (%)
# number only, unit % dropped from output

// solved cases for growth inhibition follow
{"columns": ["compound", "growth inhibition (%)"],
 "data": [
  ["COc1ccc(C(=O)C(C(=O)CCC(=O)Nc2ccc(Cl)c(Cl)c2)c2ccc(OC)cc2)cc1 (configuration not stated)", 18.6],
  ["Clc1nncc(SCc2ccccc2)c1SCc1ccccc1", 22.5],
  ["CCOC(=O)c1cnc2cc3c(cc2c1Nc1cccc(C)c1C)OCO3", 3.5],
  ["Cn1c(=O)c(C(=O)NC(=O)OCc2ccccc2)cn(CCSCCOC(=O)NCCCCCCNC(=O)OCCSCCn2cc(C(=O)NC(=O)OCc3ccccc3)c(=O)n(C)c2=O)c1=O", -5.15],
  ["Cc1cc(N=Nc2ccc(N=Nc3ccc(S(=O)(=O)O)cc3)cc2)cc(C(=O)O)c1O", -19.7],
  ["O=C(O)C1C(C(=O)O)C2C3C4C1C1C2C3C41 (configuration not stated)", 13.3],
  ["Fc1ccccc1-c1ccccc1", -10.8],
  ["Cc1cccc(NC(=O)NC2CCC(CC3CCCCC3)CC2)c1 (configuration not stated)", -1.55],
  ["CCOC(=O)c1cnc(=O)n(Cc2ccccc2)c1N", 0.35],
  ["CC(C)CNC(=O)C(=O)NCC(C)C", -21.4]
]}

input: What does the record list as growth inhibition for NC(N)=Nc1ccc(Sc2ccc(N=C(N)N)cc2)cc1 ?
output: -4.65

input: Can you share its growth inhibition? I mean this compound: CN1C(=O)N(C)C(=O)C(C)(NS(=O)(=O)c2ccc(NC(=O)CCC(=O)O)cc2)C1=O
output: 0.95

input: Data request, read-out growth inhibition, for CCN(CC)c1ncnc2c1nc(C)n2Nc1ccccc1
output: 0.5

input: Fill blank: measured growth inhibition of the compound CCCCN(CCCC)c1ccc(S(=O)(=O)c2ccc(N(CCCC)CCCC)cc2)cc1 is ____.
output: -2.35

input: Could you share which growth inhibition value was measured for CCOc1ccc(N=Nc2c(C)nc(N)nc2-c2ccccc2)cc1 ?
output: 35.4

input: Suppose we examine the compound CC(=O)Nc1ccc(C2CCCC2)cc1Br ; what growth inhibition value has been reported?
output: -12.2

input: What value of growth inhibition has been recorded for this entry: Cc1ccc(N(C)c2cc(=O)n(C)c(=O)[nH]2)cc1C
output: 12.4

input: Look up growth inhibition for this compound: O=C1CCC(C(=O)Nc2ccc(Cl)cc2Cl)N1 (configuration not stated)
output: 3.45

input: Please look up its growth inhibition: COC(=O)C(=O)C(C(=O)C(=O)Nc1ccc(C)cc1C)c1nc2ccc(Cl)cc2[nH]c1=O (configuration not stated)
output: -22.4

input: Please give the measured growth inhibition for this compound: O=C(NNC(=O)c1ccc(Cl)cc1Cl)c1ccc2ccccc2c1
output: -0.1

---

testName: NCI Yeast Anticancer Drug Screen. Data for the cln2 rad14 strain (AID 165);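 also: 0% = growth equal to vehicle treated cultures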
experimentalContext: S. cerevisiae cln2 rad14 strain, at 50.0 µM
About 79,000 compounds went through this panel and 15% of them were active in at least one assay; those are over-represented in the sample as a whole. The source made the active and inactive calls. No stated cut-off is given here; in the data, active means growth inhibition above about 70%; inactive means the rest.
Thanks in advance; please answer with one of these: t for active, f for inactive

Take a look at these entries with their results.
{"columns": ["compound", "classification"],
 "data": [
  ["C/C(N=NS(=O)(=O)c1ccc(C)cc1)=C1\\C=CC=CN1O", "f"],
  ["NCCCCCCCCCCCCN", "f"],
  ["O=C1c2cc(O)c(O)cc2O[C@H](c2ccc(O)c(O)c2)[C@H]1O", "f"],
  ["CC1=CCC(=O)O1", "f"],
  ["[C-]#[N+]C1(c2ccccc2)C2CC3CC(C2)CC1C3 (stereo not drawn)", "f"],
  ["Cc1ccc(C2(C#N)CCCC2)cc1", "f"],
  ["O=C(O)CCC(=O)Nc1cccc(C(F)(F)F)c1", "f"],
  ["Cc1cc(=O)c2c(F)ccc(F)c2[nH]1", "f"]
]}

input: Identify the outcome logged in this assay for the compound shown: Cc1ccccc1[B-]12OCC[N+]1(CNC(=O)c1ccccc1O)CCO2 (stereo not drawn)
output: f

input: I'd appreciate the recorded outcome for CC(=O)OCC1OC(c2ccccc2)C/C(=N/O)C1OC(C)=O (stereo not drawn) from this test.
output: t

input: Just curious, what result did C(=Nc1ccccc1)Nc1ccccc1 get here?
output: f

input: Test call for this compound, please: CC(C)C1OCC(CO)([N+](=O)[O-])CO1 (stereo not drawn)
output: f

input: Please state the recorded outcome for this compound: COc1cc(Cl)ccc1NC(=O)Oc1ccc(-c2ccccc2)cc1Cl
output: t

---

testName: NCI Yeast Anticancer Drug Screen. Data for the cln2 rad14 strain (AID 165);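 also: 0% = growth equal to vehicle treated cultures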
experimentalContext: S. cerevisiae cln2 rad14 strain, at 50.0 µM
The panel holds about 79,000 compounds, 15% with a hit somewhere; the sample as a whole holds those more often. Activity calls are given as the source filed them. Rule as the data show it: active = growth inhibition above about 70%; inactive = the rest.
Assign a class; possible classes are yes = active, no = inactive

{"columns": ["molecule", "classification"],
 "data": [
  ["NS(=O)(=O)c1ccc(NC(=O)CCl)cc1", "no"],
  ["O/N=C(/Cc1ccccc1)CC(O)(C(F)(F)F)C(F)(F)F", "yes"],
  ["CN(C)CCNC(=O)c1cccc(C(C)(C)C)c1[N+](=O)[O-]", "no"],
  ["Cc1cc([N+](=O)[O-])c(C)c(Br)c1C", "no"]
]}

input: Record lookup: outcome of this test for NC(=O)N/N=C/c1cccc2ccccc12 ?
output: no

input: What did the test return for Clc1ccccc1-c1c2ccccc2cc2c1ccc1ccccc12 ?
output: no

input: Would you mind telling me which call this test gave C=CCNC(=S)N1CC(C)C(=O)Nc2ccccc21 (centres undefined) ?
output: no

---

testName: NCI Yeast Anticancer Drug Screen. Data for the mlh1 rad18 strain (AID 175)
experimentalContext: S. cerevisiae mlh1 rad18 strain growth inhibition; at 50.0 µM; active compounds read high
The panel holds about 79,000 compounds, 15% with a hit somewhere; the sample as a whole holds those more often.
propertyMeasured: growth inhibition (%)
Provide the reading as a plain figure in %.

{"columns": ["compound", "growth inhibition, %"],
 "data": [
  ["Nc1cc(=O)[nH]c(=S)n1-c1ccccc1", -9.65],
  ["CC(/C=N/N(C)C)=N\\N(C)C", -21.4],
  ["CCCC(=O)NC(NC1CCCCC1)(C(=O)OCC)C(F)(F)F (stereo unspecified)", -45.1],
  ["Cc1onc2c1c(=O)n(C)c(=O)n2C", -2.25]
]}

input: # query: growth inhibition of entry CCC(C)c1cc(C(C)(C)C)cc(-n2nc3ccccc3n2)c1OS(=O)(=O)c1cccc(N)c1 (stereo unspecified)
output: -22

input: Give the measured growth inhibition of Nc1cccc(OCc2nc(N)nc(N)c2-c2ccc(Cl)cc2)c1 .
output: -20.9

---

growth inhibition by entry:
testName: NCI Yeast Anticancer Drug Screen. Data for the rad50 strain (AID 155);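 also: 0% = growth of vehicle-only cultures of the same strain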
experimentalContext: S. cerevisiae rad50 strain growth inhibition; at 50.0 µM; active compounds read high
Compounds without any hit were thinned out: in the full panel of roughly 79,000, 15% have a hit.
Report the figure in % without appending any unit label.

{"columns": ["compound", "propertyMeasured", "unitAnnotation", "quantitativeResult"],
 "data": [
  ["Oc1ccc(Cl)cc1N1CCOCC1", "growth inhibition", "%", 9.55],
  ["COc1cc(C2N3CCCN2CC3)cc(OC)c1OC (stereo not drawn)", "growth inhibition", "%", -3.75],
  ["CCOC(=O)c1ccc(OC)cc1", "growth inhibition", "%", -12.7]
]}

input: Looking for the measured growth inhibition of Cc1onc(-c2ccccc2)c1NC(=O)OC(C)c1cccnc1 (stereo not drawn) , can you help?
output: -6.3

---

testName: NCI Yeast Anticancer Drug Screen. Data for the mec2-1 strain (AID 157)
experimentalContext: S. cerevisiae mec2-1 strain, at 50.0 µM, active compounds read high
This is part of a sample that, as a whole, favours compounds with a hit. Of some 79,000 tested, about 15% had one in any assay.
propertyMeasured: growth inhibition (%)
Number only, in %; omit the unit.

The examples below pair each entry with its known result.
{"columns": ["compound", "growth inhibition, %"],
 "data": [
  ["CC(C)c1cc(CN(C)C)c(O)c(C(C)(C)C)c1", 23.2],
  ["CC1CC2=C(C1)C(C1(C)C(=O)CC3C(C1=O)C3(C)C)C(C)C2=O (configuration not stated)", -24.6],
  ["C=CCOC(=O)NC1C(OC(C)[C@@H](NC(=O)OCc2ccccc2)C(=O)OC(C)(C)C)OC(COC(C)=O)C(OC(C)=O)C1OC(C)=O (some centres not stated)", -23.8],
  ["CCCC1OCC(O)C(C(O)C(=O)CN(Cc2ccccc2)Cc2ccccc2)O1 (configuration not stated)", 1.35],
  ["Oc1ccc(Cl)cc1N1CCOCC1", 24.1],
  ["CCCCCCCCCCCCCCCCn1/c(=N\\N=O)sc2ccccc21", -17.9],
  ["Cc1ccc(S(=O)c2cccs2)cc1 (configuration not stated)", -28.1],
  ["O=S1(=O)CCC(Br)c2ccccc21 (configuration not stated)", -0.25],
  ["CN(C)Cc1cn(C[Si](C)(C)C)c2ccccc12", -3.25],
  ["COc1cc(=O)n(-c2ccccc2)nc1C#N", -0.7]
]}

input: # get_value(readout='growth inhibition', item= CCCCCOP(=O)(OCCCCC)C(c1ccccc1)c1ccccc1 )
output: -44.9

input: Would you kindly share the measured growth inhibition for CCCC[Si](C)(C)CCCC ?
output: -5.95
